Attribution: patent US7723326B2

Molecular target: RXR ligand binding domain (accession number X52773) fused with the DNA binding domain of yeast GAL4 (Homo sapiens)
Sequence (P19793 227-458 limits assumed): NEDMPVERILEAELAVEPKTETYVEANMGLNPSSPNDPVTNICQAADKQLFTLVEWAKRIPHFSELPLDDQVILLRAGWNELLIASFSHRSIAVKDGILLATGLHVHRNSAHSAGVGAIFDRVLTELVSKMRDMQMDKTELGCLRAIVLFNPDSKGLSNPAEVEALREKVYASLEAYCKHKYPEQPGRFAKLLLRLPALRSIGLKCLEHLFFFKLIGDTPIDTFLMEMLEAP
Test: RXR co-transfection assay (GAL4-LBD luciferase reporter in HEK293 cells)
Details: 16-18 hours
Experimental: The nucleic acid sequence from 676-1464bp (accession number X52773) encoding the ligand binding domains was subcloned into the pM vector (BD Biosciences Clontech, Palo Alto, Calif.) and were fused with the DNA binding domain of yeast GAL4. HEK293 cells were cultured in DMEM/F12 medium supplemented with 10% FBS and 1% 1-glutamine (growth medium). […]
pEC50: −log10 of the molar value.

{"compound": "Cc1cc2c(cc1-c1cc(CCC(=O)O)ccc1OC(F)(F)F)N(C(C)C)C(=O)C(C)(C)O2", "valueModifier": "=", "pEC50": 6.46}
{"compound": "CCN1C(=O)C(C)(C)Oc2cc(C)c(-c3cc(/C=C(\\C)C(=O)O)ccc3OC(F)(F)F)cc21", "valueModifier": "=", "pEC50": 5.85}
{"compound": "Cc1cc2c(cc1-c1cc(/C=C/C(=O)O)ccc1OC(F)(F)F)N(C)C(=O)C(C)(C)O2", "valueModifier": "<", "pEC50": 5.70}
{"compound": "CCN1C(=O)C(C)(C)Oc2cc(C)c(-c3cc(CCC(=O)O)ccc3OC(F)(F)F)cc21", "valueModifier": "=", "pEC50": 6.15}
{"compound": "Cc1cc2c(cc1-c1cc(/C=C/C(=O)O)ccc1OCC(F)(F)F)N(C)C(=O)C(C)(C)O2", "valueModifier": "<", "pEC50": 5.70}
{"compound": "CCN1C(=O)C(C)(C)Oc2cc(C)c(-c3cc([C@@H]4C[C@H]4C(=O)O)ccc3OC(F)(F)F)cc21 (racemic)", "valueModifier": "=", "pEC50": 6.41}
{"compound": "CCN1C(=O)C(C)(C)Oc2cc(C)c(-c3cc(/C(C)=C/C(=O)O)ccc3OC(F)(F)F)cc21", "valueModifier": "=", "pEC50": 7.21}
{"compound": "CCN1C(=O)OC(C(C)C)c2cc(C)c(-c3cc(CCC(=O)O)ccc3OC(F)(F)F)cc21 (stereo not drawn)", "valueModifier": "<", "pEC50": 5.70}
{"compound": "Cc1cc2c(cc1-c1cc(/C=C/C(=O)O)ccc1OC(F)(F)F)N(C(C)C)C(=O)C(C)(C)O2", "valueModifier": "=", "pEC50": 7.01}
{"compound": "CCn1c(=O)c(=O)n(CC)c2cc(-c3cc([C@@H]4C[C@H]4C(=O)O)ccc3OC(F)(F)F)c(C)cc21 (racemic)", "valueModifier": "<", "pEC50": 5.70}
{"compound": "Cc1cc2c(cc1-c1cc(C3CC3C(=O)O)ccc1OC(F)(F)F)N(C(C)C)C(=O)C(C)(C)O2 (racemic)", "valueModifier": "=", "pEC50": 6.14}
{"compound": "CCN1C(=O)C(C)(C)Oc2cc(C)c(-c3cc(/C=C/C(=O)O)ccc3OCC(F)(F)F)cc21", "valueModifier": "<", "pEC50": 5.70}

====

System: ABCA1 mRNA in THP-1 cells
Experiment: ABCA1 bDNA assay (ABCA1 mRNA induction)
Type: cell-based
Conditions: Homo sapiens, @3 μM, relative to MX-6054, read-out: ABCA1 % max MX-6054
Experimental: THP-1 cells, a human monocytic cell line, were obtained from ATCC and maintained in RPMI (Gibco) supplemented with 10% fetal bovine serum (Gibco), 2mM L-glutamine and 1% antibiotic-antimycotic in 5% CO2 at 37° C. For ABCA1 mRNA induction assays, the cells were pelleted and resuspended in RPMI supplemented with 0.5% charcoal treated serum (Hyclone), 2 mM glutamine and 1% antibiotic-antimycotic. […]
Measured Emax at 3 µM by item

{"molecule": "Cc1cc2c(cc1-c1cc(/C=C/C(=O)O)ccc1OC(F)(F)F)N(C(C)C)C(=O)C(C)(C)O2", "Emax at 3 µM": "79%"}
{"molecule": "Cc1cc2c(cc1-c1cc(C3CC3C(=O)O)ccc1OC(F)(F)F)N(C(C)C)C(=O)C(C)(C)O2 (racemic)", "Emax at 3 µM": "64.1%"}
{"molecule": "CCN1C(=O)C(C)(C)Oc2cc(C)c(-c3cc(/C(C)=C/C(=O)O)ccc3OC(F)(F)F)cc21", "Emax at 3 µM": "75.5%"}
